target: 64 kDa MMP-2 (Homo sapiens, UniProt P08253); experiment: OmniMMP fluorogenic substrate kinetic assay of MMP-2 activity; type: biochemical; conditions: substrate degradation assay, 64 kDa MMP-2
Sequence (P08253 110-660): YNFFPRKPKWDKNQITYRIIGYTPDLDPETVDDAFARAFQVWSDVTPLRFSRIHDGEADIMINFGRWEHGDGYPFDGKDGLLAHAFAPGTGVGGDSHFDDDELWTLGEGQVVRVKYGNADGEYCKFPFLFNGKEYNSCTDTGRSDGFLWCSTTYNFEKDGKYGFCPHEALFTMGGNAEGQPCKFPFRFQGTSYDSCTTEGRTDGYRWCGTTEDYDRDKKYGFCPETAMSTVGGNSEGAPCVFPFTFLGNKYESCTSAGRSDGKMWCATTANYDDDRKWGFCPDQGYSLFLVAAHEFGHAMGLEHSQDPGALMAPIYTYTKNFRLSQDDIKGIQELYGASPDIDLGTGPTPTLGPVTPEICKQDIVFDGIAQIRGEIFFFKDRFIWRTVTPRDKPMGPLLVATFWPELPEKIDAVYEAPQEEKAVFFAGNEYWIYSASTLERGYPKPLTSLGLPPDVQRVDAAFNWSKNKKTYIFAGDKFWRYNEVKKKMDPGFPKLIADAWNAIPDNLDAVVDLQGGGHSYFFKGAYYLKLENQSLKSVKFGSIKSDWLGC

compound: Nc1ncnc2c1ncn2[C@@H]1O[C@H](C(=O)N2CCN(CC(=O)Nc3cccc4c3CNC4=O)CC2)[C@@H](O)[C@H]1O
IC50 values (range in words): millimolar range
--
compound: Nc1cccc2c(=O)[nH]ccc12
IC50 values (range in words): high micromolar range
--
compound: NC(=O)c1cccc(N)c1 [3-AB, 3-Aminobenzamide]
IC50 values (range in words): millimolar range
--
compound: CN(C)CC(=O)Nc1ccc2[nH]c(=O)c3ccccc3c2c1
IC50 values (range in words): high micromolar range

Data origin: paper PMC2756481
